# TESTED_ON: PI3Kdelta (Homo sapiens)
# Sequence (O00329 whole entry, species assumed): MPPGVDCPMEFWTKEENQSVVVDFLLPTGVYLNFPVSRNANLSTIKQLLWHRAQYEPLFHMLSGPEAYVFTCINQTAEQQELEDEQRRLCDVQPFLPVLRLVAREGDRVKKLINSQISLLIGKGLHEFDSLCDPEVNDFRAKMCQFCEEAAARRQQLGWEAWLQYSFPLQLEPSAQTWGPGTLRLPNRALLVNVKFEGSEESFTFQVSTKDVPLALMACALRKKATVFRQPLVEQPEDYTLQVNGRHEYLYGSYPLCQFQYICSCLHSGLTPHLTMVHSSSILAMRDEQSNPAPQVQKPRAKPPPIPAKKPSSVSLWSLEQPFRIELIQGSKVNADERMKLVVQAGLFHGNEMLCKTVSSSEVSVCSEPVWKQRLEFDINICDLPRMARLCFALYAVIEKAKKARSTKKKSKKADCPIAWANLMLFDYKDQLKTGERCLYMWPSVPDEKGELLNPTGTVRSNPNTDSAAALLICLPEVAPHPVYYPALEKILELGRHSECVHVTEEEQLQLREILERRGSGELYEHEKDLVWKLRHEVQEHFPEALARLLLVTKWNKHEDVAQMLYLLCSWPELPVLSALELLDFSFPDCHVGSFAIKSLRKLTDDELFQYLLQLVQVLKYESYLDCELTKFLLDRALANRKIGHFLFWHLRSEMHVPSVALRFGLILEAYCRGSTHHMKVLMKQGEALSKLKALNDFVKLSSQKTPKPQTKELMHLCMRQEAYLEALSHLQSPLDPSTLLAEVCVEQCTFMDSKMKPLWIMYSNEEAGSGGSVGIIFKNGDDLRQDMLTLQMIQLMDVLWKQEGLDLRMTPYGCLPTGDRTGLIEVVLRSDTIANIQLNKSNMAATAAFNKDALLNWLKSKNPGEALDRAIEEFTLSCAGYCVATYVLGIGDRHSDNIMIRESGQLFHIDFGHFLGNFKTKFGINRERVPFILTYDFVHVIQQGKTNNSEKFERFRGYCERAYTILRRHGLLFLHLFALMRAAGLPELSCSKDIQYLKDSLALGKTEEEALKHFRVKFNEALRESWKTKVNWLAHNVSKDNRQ
# Sequence (P26450 whole entry partner, species assumed): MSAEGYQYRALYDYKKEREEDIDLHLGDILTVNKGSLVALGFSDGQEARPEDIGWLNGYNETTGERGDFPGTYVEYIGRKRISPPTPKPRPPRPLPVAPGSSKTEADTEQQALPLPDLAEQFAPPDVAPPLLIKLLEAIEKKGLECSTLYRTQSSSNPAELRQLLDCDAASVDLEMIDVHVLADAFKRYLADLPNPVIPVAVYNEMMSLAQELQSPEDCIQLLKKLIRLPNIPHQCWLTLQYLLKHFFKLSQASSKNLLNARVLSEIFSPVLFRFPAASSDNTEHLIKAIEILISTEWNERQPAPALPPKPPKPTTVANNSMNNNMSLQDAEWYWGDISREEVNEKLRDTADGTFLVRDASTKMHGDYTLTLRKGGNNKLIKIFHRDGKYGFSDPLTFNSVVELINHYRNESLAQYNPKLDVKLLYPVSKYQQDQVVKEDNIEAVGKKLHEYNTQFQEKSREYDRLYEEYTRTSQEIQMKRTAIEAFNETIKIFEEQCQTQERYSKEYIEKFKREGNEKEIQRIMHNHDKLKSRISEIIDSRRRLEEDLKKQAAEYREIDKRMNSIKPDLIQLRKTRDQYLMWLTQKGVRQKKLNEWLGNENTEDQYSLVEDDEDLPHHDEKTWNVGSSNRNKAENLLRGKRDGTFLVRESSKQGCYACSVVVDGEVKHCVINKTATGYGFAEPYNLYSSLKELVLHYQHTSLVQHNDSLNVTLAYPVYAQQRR
# RUN_DESCRIPTION: Inhibition of AKT phosphorylation (pAkt-S473) in MEF-3T3-myr p110δ mouse fibroblasts
# Type: cell-based
# COND: pAkt-S473, MEF-3T3-myr p110δ; read-out: IC50 on PI3Kdelta in cells
QUANTITY_MEASURED: pIC50
One number for each entry, as −log10 of the molar value.

Prompt line: GET /values?readout=pIC50&item= C[C@H]1Cc2ccccc2N1C(=O)Cc1nc(N2CCOCC2)cc(=O)[nH]1
Response line: 6.08

---

# TESTED_ON: UniProt:Q8NEB9
# Sequence (Q8NEB9 whole entry): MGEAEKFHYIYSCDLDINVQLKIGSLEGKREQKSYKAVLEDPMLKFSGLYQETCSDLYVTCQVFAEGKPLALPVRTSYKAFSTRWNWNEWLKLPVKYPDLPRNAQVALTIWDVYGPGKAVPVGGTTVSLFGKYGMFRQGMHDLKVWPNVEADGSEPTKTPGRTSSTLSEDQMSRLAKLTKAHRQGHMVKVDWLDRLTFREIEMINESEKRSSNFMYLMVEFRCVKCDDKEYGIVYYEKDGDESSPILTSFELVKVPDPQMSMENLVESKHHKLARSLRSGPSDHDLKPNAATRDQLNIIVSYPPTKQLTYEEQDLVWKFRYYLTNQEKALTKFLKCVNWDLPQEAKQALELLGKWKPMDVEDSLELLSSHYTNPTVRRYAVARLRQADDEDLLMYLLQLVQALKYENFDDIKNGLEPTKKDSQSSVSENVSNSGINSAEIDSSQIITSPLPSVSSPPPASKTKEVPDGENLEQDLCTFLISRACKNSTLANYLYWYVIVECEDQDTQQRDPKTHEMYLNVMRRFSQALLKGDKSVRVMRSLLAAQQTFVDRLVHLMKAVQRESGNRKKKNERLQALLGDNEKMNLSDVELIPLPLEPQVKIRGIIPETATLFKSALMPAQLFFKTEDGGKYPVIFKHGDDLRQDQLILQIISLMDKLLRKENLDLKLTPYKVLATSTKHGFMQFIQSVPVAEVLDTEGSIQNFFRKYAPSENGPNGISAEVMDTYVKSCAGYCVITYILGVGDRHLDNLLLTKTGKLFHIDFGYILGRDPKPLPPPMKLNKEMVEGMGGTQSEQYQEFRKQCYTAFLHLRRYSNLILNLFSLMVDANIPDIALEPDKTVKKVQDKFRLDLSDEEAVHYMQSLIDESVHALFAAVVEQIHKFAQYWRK
QUANTITY_MEASURED: IC50 (nM)
Give bare numbers, in nM.

Prompt line: Lab note: need IC50 for C[C@H]1Cc2ccccc2N1C(=O)Cc1nc(N2CCOCC2)cc(=O)[nH]1 on UniProt:Q8NEB9, anyone have it?
Response line: 180
